Procedure details: Acute toxicity in mice (i.p., Litchfield and Wilcoxon)
Format: in vivo, albino I.C.R. Swiss mice
Condition: mouse, in vivo, ip, albino I.C.R. Swiss mice, both sexes
Measured property: LD50 (mg/kg)
Please respond with the number in mg/kg and leave the unit unwritten.

// worked examples, LD50 included
Compound	Measured property	Unit info	Endpoint result
CCC(=O)O[C@](Cc1ccccc1)(c1ccccc1)[C@H](C)CN(C)C [Dextropropoxyphene, reference compound]	LD50	mg/kg	140
COc1cc(C(O)c2nccc(C)c2C)cc(OC)c1OC (stereo not drawn)	LD50	mg/kg	292

Now for the compound whose LD50 we want.
What does the record list as LD50 for COc1cc(CC2C(C)=C(C)CCN2C)cc(OC)c1OC (stereo not drawn) ?
154
